RUN DESCRIPTION: in vivo
PROTOCOL CONDITIONS: Swiss ICR, mouse, plasma, ip
OUTCOME MEASURE: half-life

CHEMICAL STRING: CN[C@H]1C(=O)N[C@@H]2Cc3ccc(cc3)Oc3cc4cc(c3O[C@@H]3O[C@H](C(=O)O)[C@@H](O)[C@H](O)[C@H]3NC(=O)CCCCCCCCC(C)C)Oc3ccc(cc3Cl)[C@@H](O)[C@@H]3NC(=O)[C@H](NC(=O)[C@@H]4NC(=O)[C@@H](NC2=O)c2cc(cc(O)c2Cl)Oc2cc1ccc2O)c1ccc(O)c(c1)-c1c(O[C@H]2O[C@H](CO)[C@@H](O)[C@H](O)[C@@H]2O)cc(O)cc1[C@@H](C(=O)NCCCN(C)C)NC3=O
READOUT VALUE: 7.6 to 13.1 h

====

RUN DESCRIPTION: clinical
PROTOCOL CONDITIONS: human, in vivo, 1000 mg, AUC

COMPOUND: CN[C@H]1C(=O)N[C@@H]2Cc3ccc(cc3)Oc3cc4cc(c3O[C@@H]3O[C@H](C(=O)O)[C@@H](O)[C@H](O)[C@H]3NC(=O)CCCCCCCCC(C)C)Oc3ccc(cc3Cl)[C@@H](O)[C@@H]3NC(=O)[C@H](NC(=O)[C@@H]4NC(=O)[C@@H](NC2=O)c2cc(cc(O)c2Cl)Oc2cc1ccc2O)c1ccc(O)c(c1)-c1c(O[C@H]2O[C@H](CO)[C@@H](O)[C@H](O)[C@@H]2O)cc(O)cc1[C@@H](C(=O)NCCCN(C)C)NC3=O [Dalbavancin]
MEASUREMENT UNIT: µg·h/mL
AUC: 24500

====

Tested on: gram positive bacteria
RUN DESCRIPTION: MIC by broth microdilution (NCCLS), with or without 30% bovine serum (Table 42)
Assay type: cell-based
PROTOCOL CONDITIONS: S. epidermidis ATCC 12228
OUTCOME MEASURE: MIC

CHEMICAL STRING: CCCCCCCCCCCC(=O)N[C@H]1[C@H](Oc2c3cc4cc2Oc2ccc(cc2Cl)[C@@H](O)[C@@H]2NC(=O)[C@H](NC(=O)[C@@H]4NC(=O)[C@H]4NC(=O)[C@@H](Cc5ccc(cc5)O3)NC(=O)[C@H](NC)c3ccc(O)c(c3)Oc3cc(O)c(Cl)c4c3)c3ccc(O)c(c3)-c3c(O[C@H]4O[C@H](CO)[C@@H](O)[C@H](O)[C@@H]4O)cc(O)cc3[C@@H](C(=O)NCCCN(C)C)NC2=O)O[C@H](C(=O)O)[C@@H](O)[C@@H]1O
READOUT VALUE: ≦0.06 mg/L

CHEMICAL STRING: CC1(C)S[C@@H]2[C@H](NC(=O)Cc3ccccc3)C(=O)N2[C@H]1C(=O)O
READOUT VALUE: >32 µg/mL

CHEMICAL STRING: CN[C@H]1C(=O)N[C@@H]2Cc3ccc(cc3)Oc3cc4cc(c3O[C@@H]3O[C@H](C(=O)O)[C@@H](O)[C@H](O)[C@H]3NC(=O)CCCCCCCC(C)C)Oc3ccc(cc3Cl)[C@@H](O)[C@@H]3NC(=O)[C@H](NC(=O)[C@@H]4NC(=O)[C@@H](NC2=O)c2cc(cc(O)c2Cl)Oc2cc1ccc2O)c1ccc(O)c(c1)-c1c(O[C@H]2O[C@H](CO)[C@@H](O)[C@H](O)[C@@H]2O)cc(O)cc1[C@@H](C(=O)NCCCN(C)C)NC3=O
READOUT VALUE: 0.125 µg/mL

CHEMICAL STRING: CN[C@H]1C(=O)N[C@@H]2Cc3ccc(cc3)Oc3cc4cc(c3O[C@@H]3O[C@H](C(=O)O)[C@@H](O)[C@H](O)[C@H]3NC(=O)CCCCCCCCC(C)C)Oc3ccc(cc3Cl)[C@@H](O)[C@@H]3NC(=O)[C@H](NC(=O)[C@@H]4NC(=O)[C@@H](NC2=O)c2cc(cc(O)c2Cl)Oc2cc1ccc2O)c1ccc(O)c(c1)-c1c(O[C@H]2O[C@H](CO)[C@@H](O)[C@H](O)[C@@H]2O)cc(O)cc1[C@@H](C(=O)NCCCN(C)C)NC3=O
READOUT VALUE: ≦0.06 mg/L

CHEMICAL STRING: C[C@@H]1[C@H](O)[C@@H](C)/C=C/C=C/C=C/C=C/C=C/C=C/C=C/[C@H](O[C@@H]2O[C@H](C)[C@@H](O)[C@H](N)[C@@H]2O)C[C@@H]2O[C@](O)(C[C@@H](O)C[C@@H](O)[C@H](O)CC[C@@H](O)C[C@@H](O)CC(=O)O[C@H]1C)C[C@H](O)[C@H]2C(=O)O
READOUT VALUE: >64 µg/mL

meta.source: patent US8143212B2
